Origin of values: ChEMBL document CHEMBL1141134

Assay: Percent material excreted unchanged was detected in the bile by i.v. administration (10 uM/Kg) to anesthetized rat
Assay type: ADME
Settings: iv, read-out: Activity
Class T: dose excreted at least 6%. Class F: dose excreted below 6%.

item_smiles | assigned_category
CNC[C@H](O)[C@@H](O)[C@H](O)[C@H](O)CO.O=C(O)c1cc(NC(=O)c2[nH]c(-c3ccc4ccccc4c3)nc2CC2CCCCCC2)cc(C(=O)O)c1 | T
CNC[C@H](O)[C@@H](O)[C@H](O)[C@H](O)CO.O=C(Nc1cc(CO)cc(CO)c1)c1[nH]c(-c2ccc3ccccc3c2)nc1CC1CCCCCC1 | F
CNC[C@H](O)[C@@H](O)[C@H](O)[C@H](O)CO.O=C(O)c1cc(NC(=O)c2cc(-c3ccc4ccccc4c3)[nH]c2CC2CCCCCC2)cc(C(=O)O)c1 | T
CNC[C@H](O)[C@@H](O)[C@H](O)[C@H](O)CO.O=C(O)c1cccc(NC(=O)c2[nH]c(-c3ccc4ccccc4c3)nc2CC2CCCCCC2)c1 | F

----------
Experiment: Percent material excreted unchanged was detected in the bile by i.v. administration (1 or 10 uM/Kg) to anesthetized rat
Assay type: ADME
Conditions: iv, read-out: Activity
Recorded dose excreted, one value per entry.
measurement_name: dose excreted (%)

item_smiles | measured_value
CNC[C@H](O)[C@@H](O)[C@H](O)[C@H](O)CO.O=C(O)c1cccc(NC(=O)[C@H](Cc2ccccc2)NC(=O)c2cc3[nH]cnc3cc2C(=O)NCC23CC4CC(CC(C4)C2)C3)c1 | 39
CNC[C@H](O)[C@@H](O)[C@H](O)[C@H](O)CO.O=C(O)c1cc(NC(=O)[C@H](Cc2ccccc2)NC(=O)c2cc3[nH]cnc3cc2C(=O)NCC23CC4CC(CC(C4)C2)C3)cc(C(=O)O)c1 | 45
CNC[C@H](O)[C@@H](O)[C@H](O)[C@H](O)CO.O=C(NCC12CC3CC(CC(C3)C1)C2)c1cc2nc[nH]c2cc1C(=O)N[C@@H](Cc1ccccc1)C(=O)Nc1cc(CO)cc(CO)c1 | 22

----------
Assay: Log D value was measured in octanol/buffer (pH 7.5)
Format: physicochemical
API: label(entry) gives yes if the entry's logD is strictly smaller than 1; on equality or larger values it gives no.

item_smiles | assigned_category
CNC[C@H](O)[C@@H](O)[C@H](O)[C@H](O)CO.O=C(O)c1cc(NC(=O)c2[nH]c(-c3ccc4ccccc4c3)nc2CC2CCCCCC2)cc(C(=O)O)c1 | yes
CNC[C@H](O)[C@@H](O)[C@H](O)[C@H](O)CO.O=C(NCC12CC3CC(CC(C3)C1)C2)c1cc2nc[nH]c2cc1C(=O)N[C@@H](Cc1ccccc1)C(=O)Nc1cc(CO)cc(CO)c1 | no
CNC[C@H](O)[C@@H](O)[C@H](O)[C@H](O)CO.O=C(O)c1cccc(NC(=O)[C@H](Cc2ccccc2)NC(=O)c2cc3[nH]cnc3cc2C(=O)NCC23CC4CC(CC(C4)C2)C3)c1 | no
CNC[C@H](O)[C@@H](O)[C@H](O)[C@H](O)CO.O=C(O)c1cc(NC(=O)[C@H](Cc2ccccc2)NC(=O)c2cc3[nH]cnc3cc2C(=O)NCC23CC4CC(CC(C4)C2)C3)cc(C(=O)O)c1 | yes
CNC[C@H](O)[C@@H](O)[C@H](O)[C@H](O)CO.O=C(O)c1cccc(NC(=O)c2[nH]c(-c3ccc4ccccc4c3)nc2CC2CCCCCC2)c1 | no
CNC[C@H](O)[C@@H](O)[C@H](O)[C@H](O)CO.O=C(O)c1cccc(NC(=O)c2cc(-c3ccc4ccccc4c3)[nH]c2CC2CCCCCC2)c1 | no
CNC[C@H](O)[C@@H](O)[C@H](O)[C@H](O)CO.O=C(O)c1cc(NC(=O)c2cc(-c3ccc4ccccc4c3)[nH]c2CC2CCCCCC2)cc(C(=O)O)c1 | no
CNC[C@H](O)[C@@H](O)[C@H](O)[C@H](O)CO.O=C(Nc1cc(CO)cc(CO)c1)c1[nH]c(-c2ccc3ccccc3c2)nc1CC1CCCCCC1 | no

----------
The following compounds have recorded pKi on Gastrin/cholecystokinin type B receptor (Mus musculus).
pKi: −log10 of the molar value.

item_smiles | system_name | pKi
CNC[C@H](O)[C@@H](O)[C@H](O)[C@H](O)CO.O=C(O)c1cc(NC(=O)[C@H](Cc2ccccc2)NC(=O)c2cc3[nH]cnc3cc2C(=O)NCC23CC4CC(CC(C4)C2)C3)cc(C(=O)O)c1 | Gastrin/cholecystokinin type B receptor (Mus musculus) | 8.30
O=C(O)c1cc(NC(=O)c2[nH]c(-c3ccccc3)nc2CC23CC4CC(CC(C4)C2)C3)cc(C(=O)O)c1 | Gastrin/cholecystokinin type B receptor (Mus musculus) | 6.80
O=C(O)c1cc(NC(=O)[C@H](Cc2ccccc2)NC(=O)c2ccccc2C(=O)NCC23CC4CC(CC(C4)C2)C3)cc(C(=O)O)c1 | Gastrin/cholecystokinin type B receptor (Mus musculus) | 7.50
CNC[C@H](O)[C@@H](O)[C@H](O)[C@H](O)CO.O=C(O)c1cccc(NC(=O)[C@H](Cc2ccccc2)NC(=O)c2cc3[nH]cnc3cc2C(=O)NCC23CC4CC(CC(C4)C2)C3)c1 | Gastrin/cholecystokinin type B receptor (Mus musculus) | 6.40
O=C(O)c1cc(NC(=O)c2[nH]c(-c3ccccc3)nc2CCC23CC4CC(CC(C4)C2)C3)cc(C(=O)O)c1 | Gastrin/cholecystokinin type B receptor (Mus musculus) | 6.20
O=C(O)c1cc(NC(=O)c2cc(-c3ccccc3)[nH]c2CCC23CC4CC(CC(C4)C2)C3)cc(C(=O)O)c1 | Gastrin/cholecystokinin type B receptor (Mus musculus) | 6.70
CNC[C@H](O)[C@@H](O)[C@H](O)[C@H](O)CO.O=C(O)c1cccc(NC(=O)c2[nH]c(-c3ccc4ccccc4c3)nc2CC2CCCCCC2)c1 | Gastrin/cholecystokinin type B receptor (Mus musculus) | 6.10
O=C(O)c1cc(NC(=O)[C@H](Cc2ccccc2)NC(=O)c2cc3cc[nH]c3cc2C(=O)NCC23CC4CC(CC(C4)C2)C3)cc(C(=O)O)c1 | Gastrin/cholecystokinin type B receptor (Mus musculus) | 9.00
O=C(O)c1cc(NC(=O)c2cc(-c3ccccc3)[nH]c2CC23CC4CC(CC(C4)C2)C3)cc(C(=O)O)c1 | Gastrin/cholecystokinin type B receptor (Mus musculus) | 6.90

----------
Biological target: Gastrin/cholecystokinin type B receptor (Mus musculus)
Sequence (P56481 whole entry): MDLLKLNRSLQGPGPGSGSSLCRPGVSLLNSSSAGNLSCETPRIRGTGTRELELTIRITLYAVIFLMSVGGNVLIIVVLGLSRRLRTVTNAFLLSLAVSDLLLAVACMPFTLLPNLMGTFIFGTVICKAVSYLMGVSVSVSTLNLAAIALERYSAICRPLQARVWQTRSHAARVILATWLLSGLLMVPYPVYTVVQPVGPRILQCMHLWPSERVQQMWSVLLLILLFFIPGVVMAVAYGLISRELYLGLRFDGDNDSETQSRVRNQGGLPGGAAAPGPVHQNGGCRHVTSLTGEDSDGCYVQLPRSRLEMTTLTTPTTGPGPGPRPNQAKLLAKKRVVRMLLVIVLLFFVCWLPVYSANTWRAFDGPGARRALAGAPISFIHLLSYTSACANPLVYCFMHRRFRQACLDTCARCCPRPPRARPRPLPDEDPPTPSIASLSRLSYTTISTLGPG

item_smiles | Ki, nM
CNC[C@H](O)[C@@H](O)[C@H](O)[C@H](O)CO.O=C(Nc1cc(CO)cc(CO)c1)c1[nH]c(-c2ccc3ccccc3c2)nc1CC1CCCCCC1 | 3980
CNC[C@H](O)[C@@H](O)[C@H](O)[C@H](O)CO.O=C(O)c1cccc(NC(=O)c2cc(-c3ccc4ccccc4c3)[nH]c2CC2CCCCCC2)c1 | 1260
CNC[C@H](O)[C@@H](O)[C@H](O)[C@H](O)CO.O=C(O)c1cc(NC(=O)c2cc(-c3ccc4ccccc4c3)[nH]c2CC2CCCCCC2)cc(C(=O)O)c1 | 200

----------
Molecular target: UniProt:Q63931
Sequence (Q63931 whole entry): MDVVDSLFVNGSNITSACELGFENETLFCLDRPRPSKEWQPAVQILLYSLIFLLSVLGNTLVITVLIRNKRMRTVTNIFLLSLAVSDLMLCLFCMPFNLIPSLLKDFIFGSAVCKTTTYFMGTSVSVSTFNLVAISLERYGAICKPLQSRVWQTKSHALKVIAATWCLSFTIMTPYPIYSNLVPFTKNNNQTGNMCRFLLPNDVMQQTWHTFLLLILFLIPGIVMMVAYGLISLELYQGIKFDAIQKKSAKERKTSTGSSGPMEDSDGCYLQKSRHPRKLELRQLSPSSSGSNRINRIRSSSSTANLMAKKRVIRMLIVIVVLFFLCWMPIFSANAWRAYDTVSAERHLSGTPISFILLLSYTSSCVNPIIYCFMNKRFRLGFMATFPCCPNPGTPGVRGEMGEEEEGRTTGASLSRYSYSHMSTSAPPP
Could you mark each record 1 if its Ki falls strictly under 3 µM, and 0 if it equals or exceeds it?

item_smiles | assigned_category
O=C(O)c1cc(NC(=O)c2[nH]c(-c3ccccc3)nc2CCC23CC4CC(CC(C4)C2)C3)cc(C(=O)O)c1 | 0
CN(C(=O)[C@H](Cc1ccccc1)NC(=O)c1cc2[nH]cnc2cc1C(=O)NCC12CC3CC(CC(C3)C1)C2)c1cc(C(=O)O)cc(C(=O)O)c1 | 0
CNC[C@H](O)[C@@H](O)[C@H](O)[C@H](O)CO.O=C(O)c1cc(NC(=O)c2[nH]c(-c3ccc4ccccc4c3)nc2CC2CCCCCC2)cc(C(=O)O)c1 | 0
O=C(O)c1cc(NC(=O)c2cc(-c3ccccc3)[nH]c2CCC23CC4CC(CC(C4)C2)C3)cc(C(=O)O)c1 | 0
CNC[C@H](O)[C@@H](O)[C@H](O)[C@H](O)CO.O=C(O)c1cc(NC(=O)c2cc(-c3ccc4ccccc4c3)[nH]c2CC2CCCCCC2)cc(C(=O)O)c1 | 1
O=C(O)CCNC(=O)c1cc(-c2ccccc2)[nH]c1CC12CC3CC(CC(C3)C1)C2 | 0
CNC[C@H](O)[C@@H](O)[C@H](O)[C@H](O)CO.O=C(O)c1cccc(NC(=O)c2cc(-c3ccc4ccccc4c3)[nH]c2CC2CCCCCC2)c1 | 0
O=C(O)c1cc(NC(=O)c2cc(-c3ccccc3)[nH]c2CC23CC4CC(CC(C4)C2)C3)cc(C(=O)O)c1 | 0
CNC[C@H](O)[C@@H](O)[C@H](O)[C@H](O)CO.O=C(O)c1cc(NC(=O)[C@H](Cc2ccccc2)NC(=O)c2cc3[nH]cnc3cc2C(=O)NCC23CC4CC(CC(C4)C2)C3)cc(C(=O)O)c1 | 1
CNC[C@H](O)[C@@H](O)[C@H](O)[C@H](O)CO.O=C(Nc1cc(CO)cc(CO)c1)c1[nH]c(-c2ccc3ccccc3c2)nc1CC1CCCCCC1 | 0
CNC[C@H](O)[C@@H](O)[C@H](O)[C@H](O)CO.O=C(NCC12CC3CC(CC(C3)C1)C2)c1cc2nc[nH]c2cc1C(=O)N[C@@H](Cc1ccccc1)C(=O)Nc1cc(CO)cc(CO)c1 | 0
CNC[C@H](O)[C@@H](O)[C@H](O)[C@H](O)CO.O=C(O)c1cccc(NC(=O)[C@H](Cc2ccccc2)NC(=O)c2cc3[nH]cnc3cc2C(=O)NCC23CC4CC(CC(C4)C2)C3)c1 | 0
